Biological target: T1, recombinant human CD3ε/δ heterodimer SEED Fc fusion protein (human, UniProt P07766 23-126; P04234 22-105)
T1 construct: not shown: SEED Fc arm, not specified
T1 sequence (P07766 23-126, stated change not applied, chain 1 of 2): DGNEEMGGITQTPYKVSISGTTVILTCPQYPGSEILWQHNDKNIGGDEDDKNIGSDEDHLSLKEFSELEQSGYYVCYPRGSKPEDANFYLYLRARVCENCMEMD
T1 sequence (P04234 22-105, stated change not applied, chain 2 of 2): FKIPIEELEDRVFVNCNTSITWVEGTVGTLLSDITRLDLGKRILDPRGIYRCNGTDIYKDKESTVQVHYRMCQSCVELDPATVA
Assay: biolayer interferometry, TCE immobilized
observation_type: pKd
Remember the convention: pKd equals -log10 of concentration in molar.

Exercise: Which pKd is listed for 1F3.5 VL1.00-VH1.04 (CD3-binding bispecific TCE of Table 30) (bispecific antibody, V domains shown, CD3 Fab arm only; VL1.00 read as the parental 1F3.5 light chain) VH: EVQLVESGGGLVQPGGSLKLSCAASGFTFNTYAMNWVRQASGKGLEWVGRIRSKYNNYATYYADSVKGRFTISRDDSKNTLYLQMNSLKTEDTAVYYCVRHGNFGESYVSWFAYWGQGTMVTVSS VL: QAVVTQEPSLTVSPGGTVTLTCRSSTGAVTTSNYANWVQQKPGQAPRGLIGGTNKRAPGTPARFSGSLLGGKAALTLSGVQPEDEAEYYCALWYSNLWVFGGGTKLTVLG ?
Key: 8.19
